- System: DeltatarO mutant
- experimental-details: S. aureus survival, RN4220 and DeltatarO strains – OD600, teichoic acid synthesis inhibitors, primary screen (AID 463173)
- condition-set: S. aureus RN4220 wild type/DeltatarO growth, OD600, 18 h, screened at 18.75 µg/mL (by protocol)
Hit rate of the full screen: of about 52,000 compounds, about 4,300 (8.3%) were called active. No stated cut-off is given here; in the data, active means survival mostly below about 52% (no sharp cut-off); inactive means mostly above about 56%. This excerpt belongs to a sample that is enriched for actives.
Use one of these outcomes when replying: active, inactive

## Input Identify the outcome logged in this assay for the molecule shown: Cc1ccc2cccc(NC(=O)c3cccc4ccccc34)c2n1
## Output active

## Input Identify the outcome logged in this assay for the molecule shown: O=C(CN1C(=O)CCc2cc(S(=O)(=O)N3CCOCC3)ccc21)NCc1ccc(F)cc1
## Output inactive

## Input Identify the outcome logged in this assay for the molecule shown: O=C1c2ccccc2C(=O)N1COc1cccc2cccnc12
## Output inactive

## Input Identify the outcome logged in this assay for the molecule shown: O=C(/C=C/c1ccco1)ON1C(=O)c2ccccc2C1=O
## Output inactive

## Input Identify the outcome logged in this assay for the molecule shown: CCOc1ccc(CCNC(=O)NCc2noc3ccc(C)cc23)cc1
## Output inactive

## Input Identify the outcome logged in this assay for the molecule shown: COc1ccc(-c2nc3nc(C)cc(N4CCN(c5cccc(C(F)(F)F)c5)CC4)n3n2)cc1
## Output inactive

## Input Identify the outcome logged in this assay for the molecule shown: Cc1ccc(CSc2cn(CC(=O)N3CCCCCC3)c3ccccc23)cc1
## Output inactive

## Input Identify the outcome logged in this assay for the molecule shown: CCC(=O)N1CCc2cc(S(=O)(=O)NC(Cc3ccccc3)C(=O)O)ccc21 (stereo not drawn)
## Output active

## Input Identify the outcome logged in this assay for the molecule shown: CC1CCCN(CCCNC(=O)c2cc3c(Cl)nc4ccccc4c3s2)C1 (stereo not drawn)
## Output inactive

## Input Identify the outcome logged in this assay for the molecule shown: O=C1C2C(C(=O)N1CCO)C1C=CC2C12CC2 (stereo not drawn)
## Output inactive

## Input Identify the outcome logged in this assay for the molecule shown: Cc1noc(Cn2c(=O)c3cc4c(cc3n(CC(=O)Nc3cccc(Cl)c3)c2=O)OCO4)n1
## Output inactive

## Input Identify the outcome logged in this assay for the molecule shown: Cc1cc(C)cc(OCCn2c(CCNC(=O)C3CCCCC3)nc3ccccc32)c1
## Output inactive

## Input Identify the outcome logged in this assay for the molecule shown: O=C(NCCc1nc2ccccc2n1CCOc1ccc(Cl)cc1)C1CCCCC1
## Output active

## Input Identify the outcome logged in this assay for the molecule shown: Cc1ccc2cccc(NC(=O)c3cccc4c(Br)cccc34)c2n1
## Output inactive

## Input Identify the outcome logged in this assay for the molecule shown: O=C(c1ccccc1)N(Cc1nc2ccccc2c(=O)[nH]1)C1CCCC1
## Output inactive

## Input Identify the outcome logged in this assay for the molecule shown: Cc1cc(-c2ccc(S(=O)(=O)NCc3ccccc3Cl)s2)on1
## Output inactive

## Input Identify the outcome logged in this assay for the molecule shown: O=C(/C=C/c1ccco1)OCCN1CCOCC1
## Output inactive

## Input Identify the outcome logged in this assay for the molecule shown: Cc1ccc(OCCCn2c(CCNC(=O)C3CCCCC3)nc3ccccc32)c(C)c1
## Output inactive
